Some variants, each annotated with its measured sfGFP reporter fluorescence.
B1: library; numbered along this chain (parent)
chain: MNIQIGELAKRTACPVVTIRFYEQEGLLPPPGRSRGNFRLYGEEHVERLQFIRHCRSLDMPLSDVRTLLSYRKRPDQDCGEVNMLLDEHIRQVESRIGALLELKHHLVELREACSGARPAQSCGILQGLSDCVCDTRGTTAHPSD

# Variants of: B1
# assayProcedure: sfGFP reporter fluorescence (15 h) (µM FITC); higher = stronger transcriptional activation
# conditionDescription: library round: Round 0; ligand: 30 µM Zn
Just the number, please.

For orientation, consider the following solved cases.
F21L :: 0.0696
H54A :: 0.0707
C55S :: 0.203

Requested field: sfGFP reporter fluorescence. Item: "I90A"
0.521

And the next one, "H89R" ?
0.975

Could you do the same for "L58I" , please?
0.0586

Follow-up item: "G6Q"
0.0746
